Molecular target: KRas^G12A (Homo sapiens, UniProt P01116, G12A)
Construct: Biotinylated KRas (corresponding to amino acids 1-169, produced at Accelegan Inc.); biotin (biotinylated); purchased Accelegan Inc
Sequence (P01116 1-169 isoform P01116-2 G12A): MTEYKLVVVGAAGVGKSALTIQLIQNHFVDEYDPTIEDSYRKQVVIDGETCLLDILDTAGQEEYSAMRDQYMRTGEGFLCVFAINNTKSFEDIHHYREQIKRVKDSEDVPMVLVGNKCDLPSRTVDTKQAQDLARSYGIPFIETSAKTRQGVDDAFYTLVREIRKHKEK
Test: KRas binding assay (TR-FRET tracer displacement), KRas G12A
Conditions: TR-FRET tracer displacement, KRas G12A
One threshold, 100 nM, splits the recorded IC50 values: lower ones are satisfied, equal or higher ones are not satisfied.

Reference set (5 entries):
>  <compound>
Cc1cc2[nH]nnc2c(-c2ncc3c(N4CCC[C@@](C)(O)C4)nc(OCC45CCCN4CCC5)nc3c2F)c1C

>  <category>
not satisfied

$$$$
>  <compound>
Cc1cc2[nH]ncc2c(-c2ncc3c(N4CCCC5(C4)NC(=O)NC5=O)nc(OCC45CCCN4CCC5)nc3c2F)c1C (stereo not drawn)

>  <category>
satisfied

$$$$
>  <compound>
Oc1cc(-c2ncc3c(N4C[C@@H]5C[C@H](C4)[C@H](O)C5)nc(OC[C@@]45CCCN4C[C@H](F)C5)nc3c2F)c2cccc(F)c2c1

>  <category>
satisfied

$$$$
>  <compound>
O=C1NCC2(CCCN(c3nc(OCC45CCCN4CCC5)nc4c(F)c(-c5cc(O)cc(Cl)c5C5CC5)ncc34)C2)N1 (stereo not drawn)

>  <category>
satisfied

$$$$
>  <compound>
Cc1cc2[nH]nnc2c(-c2ncc3c(N4CCC[C@@](C)(O)C4)nc(OC[C@@]45CCCN4C[C@H](F)C5)nc3c2F)c1C

>  <category>
not satisfied

$$$$

Exam item: Is IC50 strictly under 100 nM for the entry Oc1cc2ccccc2c(-c2ncc3c(N4C[C@@H]5C[C@H](C4)[C@H](O)C5)nc(OC[C@@]45CCCN4C[C@H](F)C5)nc3c2F)c1Cl ?
Marked response: not satisfied

Exam item: Is IC50 strictly under 100 nM for the entry Cc1cc2[nH]ncc2c(-c2ncc3c(N4CCCC5(CC(O)C5)C4)nc(OCC45CCCN4CCC5)nc3c2F)c1C (stereo not drawn) ?
Marked response: not satisfied

Exam item: Is IC50 strictly under 100 nM for the entry Cc1cc2sncc2c(-c2ncc3c(N4CCC[C@@](C)(O)C4)nc(OCC45CCCN4CCC5)nc3c2F)c1C ?
Marked response: not satisfied

Exam item: Is IC50 strictly under 100 nM for the entry Oc1cc(-c2ncc3c(N4C[C@@H]5C[C@H](C4)[C@H](O)C5)nc(OC[C@@]45CCCN4C[C@H](F)C5)nc3c2F)c2ccccc2c1Cl ?
Marked response: not satisfied

====

Molecular target: KRas^G12D (Homo sapiens, UniProt P01116, G12D)
Construct: Biotinylated KRas (corresponding to amino acids 1-169, produced at Accelegan Inc.); biotin (biotinylated); purchased Accelegan Inc
Sequence (P01116 1-169 isoform P01116-2 G12D): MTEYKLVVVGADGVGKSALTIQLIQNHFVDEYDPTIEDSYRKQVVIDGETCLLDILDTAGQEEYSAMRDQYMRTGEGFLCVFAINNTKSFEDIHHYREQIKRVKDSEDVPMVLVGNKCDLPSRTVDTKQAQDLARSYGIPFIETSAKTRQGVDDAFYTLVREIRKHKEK
Test: KRas binding assay (TR-FRET tracer displacement), KRas G12D
measurement.type: IC50 (nM)
Kindly answer with a numeric value in nM, unit omitted.

Recorded IC50, per entry:
>  <compound>
CCCCN(CCCC)C(=O)OC[C@@H]1CC[C@@]2(COc3nc(N4CCC[C@@](C)(O)C4)c4cnc(-c5cc(O)cc6ccc(F)c(CC)c56)c(F)c4n3)CCCN12 [Example 873]

>  <IC50 (nM)>
7

$$$$
>  <compound>
Oc1cc(-c2ncc3c(N4C[C@@H]5C[C@H](C4)[C@H](O)C5)nc(OC[C@@]45CCCN4C[C@H](F)C5)nc3c2F)c2ccc(F)cc2c1 [Example 749]

>  <IC50 (nM)>
54

$$$$
>  <compound>
Cc1cc2[nH]ncc2c(-c2ncc3c(N4CCCC5(CNC(=O)N5)C4)nc(OCC45CCCN4CCC5)nc3c2F)c1C (stereo not drawn) [Example 729]

>  <IC50 (nM)>
26

$$$$
>  <compound>
CCc1c(F)ccc2cc(O)cc(-c3ncc4c(N5CCC[C@@](C)(O)C5)nc(OC[C@@]56CCCN5[C@@H](COC)CC6)nc4c3F)c12 [Example 886]

>  <IC50 (nM)>
2

$$$$
>  <compound>
CCc1c(F)ccc2cc(O)cc(-c3ncc4c(N5C[C@@H]6C[C@H](C5)[C@H](O)C6)nc(OC[C@@]56CCCN5C[C@@H](OC)C6)nc4c3F)c12 [Example 925]

>  <IC50 (nM)>
6

$$$$

Exam item: So what's the measured IC50 for this one? CCc1c(F)ccc2cc(O)cc(-c3ncc4c(NCc5cc(C(=O)N(C)C)nn5C5CCC5O)nc(OC[C@@]56CCCN5C[C@H](F)C6)nc4c3F)c12 (stereo partly drawn) [Example 677]
Marked response: 13

====

The following compounds are listed with their measured inhibition at 0.01 µM values.
Target: KRas^G12C (Homo sapiens, UniProt P01116, G12C)
Construct: Biotinylated KRas (corresponding to amino acids 1-169, produced at Accelegan Inc.); biotin (biotinylated); purchased Accelegan Inc
Sequence (P01116 1-169 isoform P01116-2 G12C): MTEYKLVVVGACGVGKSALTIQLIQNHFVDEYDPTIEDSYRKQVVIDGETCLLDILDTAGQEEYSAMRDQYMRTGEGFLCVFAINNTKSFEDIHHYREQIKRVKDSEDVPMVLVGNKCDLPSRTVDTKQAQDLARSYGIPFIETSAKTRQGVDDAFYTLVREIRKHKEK
Test: KRas binding assay (TR-FRET tracer displacement), KRas G12C
Settings: single point, 10 nM compound, TR-FRET
Kindly answer with a numeric value in %, unit omitted.

Recorded inhibition at 0.01 µM, per entry:
>  <compound>
CCc1c(F)ccc2cc(O)cc(-c3ncc4c(N5CCC(O)C(F)(F)CC5)nc(OC[C@@]56CCCN5C[C@H](F)C6)nc4c3F)c12 (some centres unmarked) [Example 586]

>  <tgt>
KRas^G12C (Homo sapiens, UniProt P01116, G12C)

>  <inhibition at 0.01 µM, %>
93

$$$$
>  <compound>
CN(C)C(=O)OC[C@@H]1CC[C@@]2(COc3nc(N4CCC[C@@](C)(O)C4)c4cnc(-c5cc(O)cc6ccc(F)c(F)c56)c(F)c4n3)CCCN12 [Example 548]

>  <tgt>
KRas^G12C (Homo sapiens, UniProt P01116, G12C)

>  <inhibition at 0.01 µM, %>
84

$$$$
>  <compound>
CCc1c(F)ccc2cc(O)cc(-c3ncc4c(N5CCC[C@@](C)(O)C5)nc(OC[C@@]56CCCN5[C@H](COC(=O)N5CCCCC5)CC6)nc4c3F)c12 [Example 721]

>  <tgt>
KRas^G12C (Homo sapiens, UniProt P01116, G12C)

>  <inhibition at 0.01 µM, %>
92

$$$$
>  <compound>
Oc1cc(-c2ncc3c(N4C[C@@H]5C[C@H](C4)[C@H](O)C5)nc(OC[C@@]45CCCN4C[C@H](F)C5)nc3c2F)c2ccccc2c1 [Example 737]

>  <tgt>
KRas^G12C (Homo sapiens, UniProt P01116, G12C)

>  <inhibition at 0.01 µM, %>
53

$$$$

Next up:
Exam item: So what's the measured inhibition at 0.01 µM for this one? CCc1c(F)ccc2cc(O)cc(-c3ncc4c(N5CCCCC(C#N)C5)nc(OC[C@@]56CCCN5C[C@H](F)C6)nc4c3F)c12 (some centres unmarked) [Example 547]
Marked response: 56

====

Tested on: KRas-mediated phosphorylation of ERK in MKN1 cells
Assay: Inhibition of KRas-mediated phosphorylation of ERK (Cisbio HTRF pERK), MKN1 cells
Assay type: cell-based
Conditions: Homo sapiens, MKN-1
measurement.type: IC50

>  <compound>
CCc1c(F)ccc2cc(O)cc(-c3ncc4c(N5CCC[C@@](C)(O)C5)nc(OC[C@@]56CCCN5[C@@H](CF)CC6)nc4c3F)c12

>  <data.value>
16 nM

$$$$
>  <compound>
CCc1c(F)ccc2cc(O)cc(-c3ncc4c(N5CCC(S(C)(=N)=O)C5)nc(OC[C@@]56CCCN5C[C@H](F)C6)nc4c3F)c12 (stereo partly drawn)

>  <data.value>
476 nM

$$$$
>  <compound>
CCc1c(F)ccc2cc(O)cc(-c3ncc4c(N5CCC[C@@](C)(O)C5)nc(OC[C@@]56CCCN5[C@H](COC(=O)N5CCCCC5)CC6)nc4c3F)c12

>  <data.value>
2 nM

$$$$
>  <compound>
C[C@@H]1C[C@@H]1c1c(Cl)cc2[nH]ncc2c1-c1ncc2c(N3CCC[C@]4(C3)NC(=O)NC4=O)nc(OCC34CCCN3CCC4)nc2c1F (atropisomer, axis not shown)

>  <data.value>
1240 nM

$$$$

Exam item: Fill in the recorded IC50 for this compound, with KRas-mediated phosphorylation of ERK in MKN1 cells as test system: CCc1c(F)ccc2cc(O)cc(-c3ncc4c(NS(=O)(=O)C[C@H]5CNCCO5)nc(OC[C@@]56CCCN5C[C@H](F)C6)nc4c3F)c12
Marked response: > 10000 nM

Exam item: Fill in the recorded IC50 for this compound, with KRas-mediated phosphorylation of ERK in MKN1 cells as test system: CN(C)C(=O)c1cc2n(n1)CCCN(c1nc(OCC34CCCN3CCC4)nc3c(F)c(-c4c(C5CC5)c(Cl)cc5[nH]ncc45)ncc13)C2
Marked response: > 10000 nM

Exam item: Fill in the recorded IC50 for this compound, with KRas-mediated phosphorylation of ERK in MKN1 cells as test system: CCCCN(CCCC)C(=O)OC[C@@H]1CC[C@@]2(COc3nc(N4CCC[C@@](C)(O)C4)c4cnc(-c5cc(O)cc6ccc(F)c(CC)c56)c(F)c4n3)CCCN12
Marked response: 198 nM

Exam item: Fill in the recorded IC50 for this compound, with KRas-mediated phosphorylation of ERK in MKN1 cells as test system: CCc1c(F)ccc2cc(O)cc(-c3ncc4c(N5CC6CCC(C5)C6CC(N)=O)nc(OC[C@@]56CCCN5C[C@H](F)C6)nc4c3F)c12 (stereo partly drawn)
Marked response: 56 nM

Exam item: Fill in the recorded IC50 for this compound, with KRas-mediated phosphorylation of ERK in MKN1 cells as test system: CCc1c(F)ccc2cc(O)cc(-c3ncc4c(N5CCC[C@]6(C5)C[C@H](O)C6)nc(OC[C@@]56CCCN5[C@H](COC(=O)N(C)C)CC6)nc4c3F)c12
Marked response: 12 nM

Exam item: Fill in the recorded IC50 for this compound, with KRas-mediated phosphorylation of ERK in MKN1 cells as test system: CCc1c(F)ccc2cc(O)cc(-c3ncc4c(N5CCC(c6ccc(=O)[nH]n6)C5)nc(OC[C@@]56CCCN5C[C@H](F)C6)nc4c3F)c12 (stereo partly drawn)
Marked response: > 10000 nM

Exam item: Fill in the recorded IC50 for this compound, with KRas-mediated phosphorylation of ERK in MKN1 cells as test system: C=C1CN2CCCC2(COc2nc(N3CCCC4(CCO4)C3)c3cnc(-c4cc(O)cc5ccc(F)c(CC)c45)c(F)c3n2)C1 (stereo not drawn)
Marked response: 0.1 nM

Exam item: Fill in the recorded IC50 for this compound, with KRas-mediated phosphorylation of ERK in MKN1 cells as test system: CCc1c(F)ccc2cc(O)cc(-c3ncc4c(N5CC6CCC(COCCO)(C6)C5)nc(OC[C@@]56CCCN5C[C@H](F)C6)nc4c3F)c12 (stereo partly drawn)
Marked response: 38 nM
